Reported ratio to parent is given for each of the following variants.
B1: H2-Kb / Ed39 (parent complex)
chain 1: GEQVEQRPPHLSVREGDSAVIICTYTDPNSYYFFWYKQEPGAGLQLLMKVFSSTEINEGQGFTVLLNKKDKQLSLNLTAAHPGDSAVYFCATMSNYNVLYFGSGTKLTVEP
chain 2: GALVYQYPRRTICKSGTSMRMECQAVGFQATSVAWYRQSPQKTFELIALSTVNSAIKYEQNFTQEKFPISHPNLSFSSMTVLNAYLEDRGLYLCGARDGSYEQYFGPGTRLTVL
chain 3: not shown
chain 4: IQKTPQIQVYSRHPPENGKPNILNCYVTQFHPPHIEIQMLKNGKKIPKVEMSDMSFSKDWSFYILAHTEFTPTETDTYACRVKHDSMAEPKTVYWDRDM
chain 5: SIINFEKL

# Variants of: B1
# Assay overview: % of reporter cells activated (NFAT-GFP), raw; note: test concentration or dose not given here
Just the number, please, no unit attached.

Lookup: Param item = chain 5 F5S ; retrieve measured ratio to parent.
Found: 0.829

Lookup: Param item = chain 5 I2K ; retrieve measured ratio to parent.
Found: 0.396

Lookup: Param item = chain 5 I2P ; retrieve measured ratio to parent.
Found: 0.58

Lookup: Param item = chain 5 N4K ; retrieve measured ratio to parent.
Found: 0.0498

Lookup: Param item = chain 5 N4Q ; retrieve measured ratio to parent.
Found: 0.00338

Continuing:
Lookup: Param item = chain 5 I2Y ; retrieve measured ratio to parent.
Found: 0.284

Lookup: Param item = chain 5 K7T ; retrieve measured ratio to parent.
Found: 0.359

Lookup: Param item = chain 5 I2W ; retrieve measured ratio to parent.
Found: 0.453

Lookup: Param item = chain 5 K7P ; retrieve measured ratio to parent.
Found: 0.326
